- Tested on: normal murine embryonic fibroblast cell line (BALB/3T3)
- procedure_text: Antiproliferative assay (sulforhodamine B, 72 h) against normal murine fibroblasts BALB/3T3
- Type: cell-based, mouse
- condition_parameters: BALB/3T3 normal murine fibroblasts, mean ± SD
- Method: Anti-proliferative assays in vitro were performed in the same manner as described in the literature. The cell lines of human leukemia MV4-11, lung A549, and colon HCT 116 cancer were chosen as representing various tissue origins and BALB/3T3 normal murine fibroblasts to assess the cytotoxicity of tested compounds towards normal cells. […]
pIC50: −log10 of the molar value.
experimental_readout: pIC50

INSERT INTO results (compound, experimental_readout, reported) VALUES
  ('N.N.[Cl][Pt][Cl] [Cisplatin, reference compound]', 'pIC50', 5.06);

====

- Test system: Human lung cancer cell line (A-549)
- procedure_text: Antiproliferative assay (sulforhodamine B, 72 h) against A549
- Format: cell-based
- condition_parameters: A549 cells, mean ± SD
- Description: Anti-proliferative assays in vitro were performed in the same manner as described in the literature. The cell lines of human leukemia MV4-11, lung A549, and colon HCT 116 cancer were chosen as representing various tissue origins and BALB/3T3 normal murine fibroblasts to assess the cytotoxicity of tested compounds towards normal cells. […]
experimental_readout: IC50 (µM)

INSERT INTO results (compound, quantity_unit, reported) VALUES
  ('N.N.[Cl][Pt][Cl] [Cisplatin, reference compound]', 'µM', 9.87),
  ('Cn1c2nc3ccccc3c-2c(NCC(O)CN)c2cc(Br)ccc21 (centres unmarked)', 'µM', 0.19);

====

- System: human colon adenocarcinoma cell line (HCT 116)
- procedure_text: Antiproliferative assay (sulforhodamine B, 72 h) against HCT 116
- Type: cell-based
- condition_parameters: Homo sapiens, HCT 116 cells, mean ± SD
pIC50: −log10 of the molar value. Counter-ions that a name gives are not always drawn.
Recorded pIC50, one value per entry.
experimental_readout: pIC50

INSERT INTO assay_data (molecule, assayed_system, reported) VALUES
  ('CC(N)CNc1c2c3ccccc3nc-2n(C)c2ccc(Cl)cc12 (centres unmarked)', 'human colon adenocarcinoma cell line (HCT 116)', 5.92),
  ('Cn1c2nc3ccccc3c-2c(NCC(O)CN)c2cc(Br)ccc21 (centres unmarked)', 'human colon adenocarcinoma cell line (HCT 116)', 6.93),
  ('Cn1c2nc3ccccc3c-2c(NCC(C)(C)CN)c2ccccc21', 'human colon adenocarcinoma cell line (HCT 116)', 5.90),
  ('COc1cccc2c1C(=O)c1c(O)c3c(c(O)c1C2=O)C[C@@](O)(C(=O)CO)C[C@@H]3O[C@H]1C[C@H](N)[C@H](O)[C@H](C)O1 [Doxorubicin HCl, reference compound]', 'human colon adenocarcinoma cell line (HCT 116)', 6.41),
  ('Cc1ccc2c(c1)c(NCC(C)(C)N)c1c3ccccc3nc-1n2C', 'human colon adenocarcinoma cell line (HCT 116)', 5.63),
  ('Cn1c2nc3ccccc3c-2c(NCC(O)CN)c2cc(Cl)ccc21 (centres unmarked)', 'human colon adenocarcinoma cell line (HCT 116)', 6.86),
  ('Cn1c2nc3ccccc3c-2c(NCC(C)(C)N)c2cc(Br)ccc21', 'human colon adenocarcinoma cell line (HCT 116)', 6.07),
  ('Cn1c2nc3ccccc3c-2c(NCC(C)(C)CN)c2cc(Cl)ccc21', 'human colon adenocarcinoma cell line (HCT 116)', 5.86);

====

- Test system: normal murine embryonic fibroblast cell line (BALB/3T3)
- procedure_text: Antiproliferative assay (sulforhodamine B, 72 h) against normal murine fibroblasts BALB/3T3
- Format: cell-based, mouse
- condition_parameters: Mus musculus, BALB/3T3, 72 h, BALB/3T3 normal murine fibroblasts, mean ± SD
pIC50: −log10 of the molar value. Counter-ions that a name gives are not always drawn.
experimental_readout: pIC50

INSERT INTO measurements (compound, reported) VALUES
  ('Cc1ccc2c(c1)c(NCC(C)(C)N)c1c3ccccc3nc-1n2C', 4.98),
  ('Cn1c2nc3ccccc3c-2c(NCC(C)(C)CN)c2cc(Cl)ccc21', 5.04),
  ('COc1cccc2c1C(=O)c1c(O)c3c(c(O)c1C2=O)C[C@@](O)(C(=O)CO)C[C@@H]3O[C@H]1C[C@H](N)[C@H](O)[C@H](C)O1 [Doxorubicin HCl, reference compound]', 5.97),
  ('Cn1c2nc3ccccc3c-2c(NCC(C)(C)CN)c2ccccc21', 5.32),
  ('Cn1c2nc3ccccc3c-2c(NCC(C)(C)N)c2cc(Br)ccc21', 6.03),
  ('CC(N)CNc1c2c3ccccc3nc-2n(C)c2ccc(Cl)cc12 (stereo not drawn)', 5.99);
